- Tested on: Mycobacterium avium 330/88
- Test Summary: MIC micromethod in Šula's medium, M. avium
- Assay type: cell-based
- Experimental Conditions: Mycobacterium avium, 330/88, 504 h; 21 d incubation, Table 1; read-out: MIC M. avium 330/88 21 d
Parameter: MIC (µM)
State the answer as a number, implicitly in µM.

Take a look at these entries with their results.
[in] # input compound: `C/C(=N\NC(=O)c1ccncc1)C(=O)Oc1ccc(Cl)cc1` ; wanted: its MIC
[out] 1000

[in] // query: `CCSC(=O)/C(C)=N/NC(=O)c1ccncc1`
[out] 500

[in] // query: `COc1ccc(OC(=O)/C(C)=N/NC(=O)c2ccncc2)cc1`
[out] 1000

[in] // query: `CC(=O)Nc1ccc(OC(=O)C(C)=NNC(=O)c2ccncc2)cc1`
[out] 1000

[in] // query: `C/C(=N\NC(=O)c1ccncc1)C(=O)Oc1cccc2ccccc12`
[out] 250

[in] // query: `C/C(=N\NC(=O)c1ccncc1)C(=O)Sc1ccccc1`
[out] 250

[in] // query: `C/C(=N\NC(=O)c1ccncc1)C(=O)Oc1cc(C(C)C)ccc1C`
[out] 250

[in] // query: `C/C(=N\NC(=O)c1ccncc1)C(=O)Oc1ccc(Br)cc1`
[out] 500

[in] // query: `C/C(=N\NC(=O)c1ccncc1)C(=O)OCCn1c([N+](=O)[O-])cnc1C`
[out] 1000

[in] // query: `C/C(=N\NC(=O)c1ccncc1)C(=O)Oc1ccc2ccccc2c1`
[out] 250

Next:
[in] # input compound: `COC(=O)/C(C)=N/NC(=O)c1ccncc1` ; wanted: its MIC
[out] 1000

[in] // query: `C/C(=N\NC(=O)c1ccncc1)C(=O)Oc1ccc(Oc2ccccc2)cc1`
[out] 500

[in] // query: `C/C(=N\NC(=O)c1ccncc1)C(=O)Oc1cccc2cccnc12`
[out] 64

[in] // query: `C/C(=N\NC(=O)c1ccncc1)C(=O)Oc1ccc(F)cc1`
[out] 500

[in] // query: `C/C(=N\NC(=O)c1ccncc1)C(=O)Oc1cc(Cl)ccc1Oc1ccc(Cl)cc1Cl`
[out] 64
